Data provenance is patent US4758565A.

# System: B. fragilis NCTC 10581
# assay: Screening panel of Bacteroides fragilis, MIC and MBC, strain A
# Type: cell-based
# condition: NCTC10581, less than 5 colonies (99.9% reduction) after 48 hours, read-out: Minimum Bactericidal Concentration (MBC)
Provide the reported MBC of each item.

# MBC lookup, item `CC1(C)CN=C2C(c3ccccc3)=[N+]([O-])c3cccc(F)c3N2C1`
1.5 µg/mL

# MBC lookup, item `Cc1ccc(C2=[N+]([O-])c3cc(C(F)(F)F)ccc3N3CC(C)(C)CN=C23)cc1`
< 0.8 µg/mL

# MBC lookup, item CCC1(C)CN=C2C(c3ccccc3)=[N+]([O-])c3cc(C(F)(F)F)ccc3N2C1 (stereo not drawn)
1.5 µg/mL

# MBC lookup, item Cc1ncc([N+](=O)[O-])n1CCO [Metronidazole, reference compound]
< 0.8 µg/mL

# MBC lookup, item `CC1(C)CN=C2C(c3ccccc3)=[N+]([O-])c3cc(C(F)(F)F)ccc3N2C1`
3.1 µg/mL

# MBC lookup, item CCC1(C)CN=C2C(c3ccc(C)cc3)=[N+]([O-])c3cc(C(F)(F)F)ccc3N2C1 (stereo not drawn)
6.2 µg/mL
